- System: Liver
- EXPERIMENTAL DETAILS: Inhibition of FeSO4-induced lipid peroxidation in Sprague-Dawley rat liver homogenate assessed as decrease in malondialdehyde level after 1 hr by TBA assay
- Assay type: functional, tissue-based
pIC50: −log10 of the molar value.
Decision: pIC50 compared against 5; not below it gives TRUE, below it gives FALSE.

[[record]]
molecule = "COc1cc(C2Oc3cc([C@H]4Oc5cc(O)cc(O)c5C(=O)[C@@H]4O)ccc3OC2COC(=O)c2cc(N)cc([N+](=O)[O-])c2)ccc1O (stereo partly specified)"
category = "TRUE"

[[record]]
molecule = "O=c1c(O)c(-c2ccc(O)c(O)c2)oc2cc(O)cc(O)c12"
category = "TRUE"

[[record]]
molecule = "COc1cc(C2Oc3cc([C@H]4Oc5cc(O)cc(O)c5C(=O)[C@@H]4O)ccc3OC2COC(=O)c2cc([N+](=O)[O-])cc([N+](=O)[O-])c2)ccc1O (relative stereo)"
category = "FALSE"

[[record]]
molecule = "COc1cc(C2Oc3cc([C@H]4Oc5cc(O)cc(O)c5C(=O)[C@@H]4O)ccc3OC2CO)ccc1O (stereo partly specified)"
category = "FALSE"

[[record]]
molecule = "COc1cc(C2Oc3cc([C@H]4Oc5cc(O)cc(O)c5C(=O)[C@@H]4O)ccc3OC2COC(=O)c2ccc3c(c2)OCO3)ccc1O (relative stereo)"
category = "FALSE"


###

- Test system: Liver
- EXPERIMENTAL DETAILS: Inhibition of FeSO4-induced lipid peroxidation in Sprague-Dawley rat liver homogenate assessed as decrease in malondialdehyde level after 1 hr by TBA assay
- Assay type: functional, tissue-based
Collected IC50 values appear next to each entry.
MEASUREMENT TYPE: IC50

[[record]]
compound = "COc1cc(C2Oc3cc([C@H]4Oc5cc(O)cc(O)c5C(=O)[C@@H]4O)ccc3OC2COC(=O)c2cccc(Cl)c2)ccc1O (stereo not given in full)"
measurement_type = "IC50"
result = "14.2 µM"

[[record]]
compound = "COc1cc(C2Oc3cc([C@H]4Oc5cc(O)cc(O)c5C(=O)[C@@H]4O)ccc3OC2COC(=O)c2ccc(N)cc2)ccc1O (relative stereo)"
measurement_type = "IC50"
result = "14.3 µM"

[[record]]
compound = "COc1cc(C2Oc3cc([C@H]4Oc5cc(O)cc(O)c5C(=O)[C@@H]4O)ccc3OC2COC(=O)/C=C/c2ccc(C)cc2)ccc1O (relative stereo)"
measurement_type = "IC50"
result = "14.7 µM"

[[record]]
compound = "COc1cc(C2Oc3cc([C@H]4Oc5cc(O)cc(O)c5C(=O)[C@@H]4O)ccc3OC2COC(=O)c2cc(OC)c(OC)c(OC)c2)ccc1O (relative stereo)"
measurement_type = "IC50"
result = "25.7 µM"

[[record]]
compound = "COc1cc(C2Oc3cc([C@H]4Oc5cc(O)cc(O)c5C(=O)[C@@H]4O)ccc3OC2COC(=O)c2ccccc2)ccc1O (relative stereo)"
measurement_type = "IC50"
result = "12.7 µM"

[[record]]
compound = "COc1cc(C2Oc3cc([C@H]4Oc5cc(O)cc(O)c5C(=O)[C@@H]4O)ccc3OC2COC(=O)/C=C/c2ccc(Br)cc2)ccc1O (relative stereo)"
measurement_type = "IC50"
result = "16.3 µM"

[[record]]
compound = "COc1ccc(C(=O)OCC2Oc3ccc([C@H]4Oc5cc(O)cc(O)c5C(=O)[C@@H]4O)cc3OC2c2ccc(O)c(OC)c2)cc1 (relative stereo)"
measurement_type = "IC50"
result = "21 µM"

[[record]]
compound = "COc1cc(C2Oc3cc([C@H]4Oc5cc(O)cc(O)c5C(=O)[C@@H]4O)ccc3OC2COC(=O)c2ccc(OC)c(OC)c2)ccc1O (mixture of isomers)"
measurement_type = "IC50"
result = "16 µM"

[[record]]
compound = "COc1cc(C2Oc3cc([C@H]4Oc5cc(O)cc(O)c5C(=O)[C@@H]4O)ccc3OC2COC(=O)c2ccc([N+](=O)[O-])cc2)ccc1O (relative stereo)"
measurement_type = "IC50"
result = "12.6 µM"

[[record]]
compound = "CCOC(=O)CC(=O)OCC1Oc2ccc([C@H]3Oc4cc(O)cc(O)c4C(=O)[C@@H]3O)cc2OC1c1ccc(O)c(OC)c1 (relative stereo)"
measurement_type = "IC50"
result = "33.4 µM"

